tested on: HL-60; test: NCI tumour cell line growth inhibition, 48 h
Active and inactive are the calls of the source. Rule as the data show it: active = GI50 up to about 1.1 µM and inactive = higher.
Write down one outcome, taken from yes (1) for active, no (0) for inactive

compound	experimental system	cat
Cc1ccc(S(=O)(=O)N2CCN3CCN(CCN(C)CCN4CCN(CC4)CCN(S(=O)(=O)c4ccc(C)cc4)CCN(S(=O)(=O)c4ccc(C)cc4)CCN(S(=O)(=O)c4ccc(C)cc4)CCN(S(=O)(=O)c4ccc(C)cc4)CCN4CCN(CCN(C)CCN5CCN(CC5)CCN(S(=O)(=O)c5ccc(C)cc5)CCN(S(=O)(=O)c5ccc(C)cc5)CCN(S(=O)(=O)c5ccc(C)cc5)CC2)CC4)CC3)cc1	HL-60	yes (1)
CC(=O)C(C(=O)C(=O)Nc1cc(Cl)c(Cl)cc1Cl)c1csc(N)n1 (configuration not stated)	HL-60	no (0)
C/C(=C\[C@H]1C[C@@H]([C@@H]2CC[C@]34C[C@]23C=C[C@@H]2[C@@]3(C)CC=C5C[C@@H](c6ccccc6)OC[C@]5(C)[C@@H]3C[C@@H](O)[C@]24C)C(=O)O1)CO	HL-60	no (0)
COc1ccc(NC(C)=O)cc1N1C(=O)/C(=C\c2cccc(Oc3ccccc3)c2)S(=O)(=O)C1c1ccccc1 (configuration not stated)	HL-60	no (0)
c1ccc2c(c1)sc1c3cnccc3ccc21	HL-60	no (0)
CC(=O)O[C@H]1CC[C@@]2(C)C(=CC[C@@H]3[C@@H]2CC[C@]2(C)C(=N/O)/C(=C\c4ccccc4)C[C@@H]32)C1	HL-60	no (0)
C[C@]12CCC[C@H](OC=O)C1(O)C[C@H](C(=O)O)CC2 (some centres not stated)	HL-60	no (0)
O=C1C(c2ccc(Br)cc2)=[N+]([O-])c2ccccc21	HL-60	no (0)
CNC(=S)OCCC(C)CCCC(C)C (configuration not stated)	HL-60	no (0)
CC(=O)N1C/C(=C\c2ccc(N(C)C)cc2)C(=O)/C(=C/c2ccc(N(C)C)cc2)C1	HL-60	no (0)

Consider now this further compound.
## Task Identify the outcome logged in this assay for the compound shown: COC(=O)CCC(NC(=S)N/N=C(\C)c1ccc[nH]1)C(=O)OC (configuration not stated)
## Result no (0)

----------
GI50 listing for selected compounds.
system: MOLT-4; experiment: NCI tumour cell line growth inhibition, 48 h
Activity calls are given as the source filed them. No stated cut-off is given here; in the data, active = GI50 up to about 1.1 µM and inactive = higher.

compound	result
Cc1ccc(C)c(N2C(=O)C(=O)C(c3nc4ccccc4s3)C(=O)C2=O)c1	> 100 µM (inactive)
Cc1sc2nc3n(c(=O)c2c1C)N=C(c1ccc(Cl)cc1)CS3	> 100 µM (inactive)
CCOC(=O)CC1(Cc2ccc(OCc3ccccc3)cc2)C(=O)OC(c2ccccc2)N1C(=O)c1ccccc1 (stereo not given)	> 100 µM (inactive)
O=C(/C=C1/NC(=O)CS1)Nc1ccccc1	> 100 µM (inactive)

## Task Entry under review: COc1ccc(/C=C2\CCC(CNc3ccc(S(N)(=O)=O)cc3)C2=O)cc1 (stereo not given) . Reported GI50?
## Result 7.69 µM (inactive)

----------
system: HCT-116; assay: NCI tumour cell line growth inhibition, 48 h
Active and inactive are the calls of the source. Cut-off read from the data, not from the text of the source: active = GI50 up to about 1.1 µM and inactive = higher.
Write down one outcome, taken from 1.0 (active), 0.0 (inactive)

compound	cat
CN(C)CCn1c(=O)c2ccc3c4c(nn3CCN(C)C)c3cc([N+](=O)[O-])ccc3n(c1=O)c24	1.0
COc1cc(Oc2nc3c(N)cc(C(F)(F)F)cc3nc2-c2ccccc2)cc(OC)c1OC	0.0
Cc1sc2nc3n(c(=O)c2c1C)N=C(c1ccc(Cl)cc1)CS3	0.0

Consider now this further compound.
## Task Identify the outcome logged in this assay for the compound shown: N=C(N)n1nc2c(c1O)CCC2
## Result 0.0
